Reference source for all entries: PubChem BioAssay AID2060905

# Test system: 282377-053-R-J1-PDC complex spheroid viability
# protocol: Anticancer human tumor 282377-053-R-J1-PDC patient-derived colon adenocarcinoma cell line growth inhibition [RAS]
# assay.context: compound 3.16 µM; stronger effect = lower value
Consider the following molecules; for each one, report its viability, T/C.

Consider the worked cases shown below.
C[C@@H](NC(=O)c1ncnc(N)c1Cl)c1ncc(C(=O)Nc2cc(C(F)(F)F)c(Cl)cn2)s1	81.1% [middle of 4 runs]
CC(C)NCC(C(=O)N1CCN(c2ncnc3c2C(C)CC3O)CC1)c1ccc(Cl)cc1 (stereo unspecified)	90.4% [middle of 4 runs]
C#Cc1c(F)ccc2cc(O)cc(-c3ncc4c(N5CC6CCC(C5)N6)nc(OCC56CCCN5CC(F)C6)nc4c3F)c12 (stereo unspecified)	111% [middle of 8 runs]
CCC(CC)c1cc(NC2CCC(N)C2)n2nccc2n1 (stereo unspecified)	10.4% [middle of 4 runs]
NC1c2ccccc2OC12CCN(c1cnc3c(N4CCCc5ncccc54)n[nH]c3n1)CC2 (stereo unspecified)	97.5% [middle of 4 runs]

Shifting focus to the molecule that follows.
Data request: Look up viability, T/C: CC(Nc1ccc2c(c1)OCCn1cc(N3C(=O)OCC3C(F)F)nc1-2)C(N)=O (stereo unspecified)
Data returned: 93.8% [middle of 4 runs]

====

# Tested on: 282377-053-R-J1-PDC complex spheroid viability
# protocol: Anticancer human tumor 282377-053-R-J1-PDC cell line growth inhibition [RAS];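 further: spheroids exposed to agents for seven days before readout; luminescence viability as percent of DMSO vehicle control wells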
# assay.context: second compound 0.3 µM; first compound 0.316 µM; stronger effect = lower value
# Source text: RAS pathway inhibitors in Combinations in Complex Spheroids A high-throughput screen of multi-cell type tumor spheroids was designed to identify active combinations of RAS pathway inhibitors and targeted small molecules. Complex spheroids include a stromal component modeled by human endothelial cells (HUVEC) and fibroblasts modeled by human mesenchymal stem cells (MSCs). […] Compounds. […] If the clinical Cmax for an agent had not been determined, the highest concentration tested was 10 microM. […]
reported.property: viability, T/C (%)
Numbers only, in %.

Consider the worked cases shown below.
C=CC(=O)N1CCN(c2nc(OCC3CCCN3C)nc3c(F)c(-c4nc(N)cc(C)c4C(F)(F)F)c(Cl)cc23)C(C)C1 (centres undefined) + CCn1c(-c2cc(N3CCN(C)CC3)cnc2C(C)OC)c2c3cc(ccc31)-c1csc(n1)CC(NC(=O)C1CC1C)C(=O)N1CCCC(N1)C(=O)OCC(C)(C)C2	104
O=C(c1ccc(F)c(F)c1Nc1ccc(I)cc1F)N1CC(O)([C@@H]2CCCCN2)C1 + CCn1c(-c2cccnc2C(C)OC)c2c3cc(ccc31)N1CCOC(CC(NC(=O)C(C(C)C)N(C)C(=O)C3(F)CCN(C(=O)C#CC(C)(C)N(C)C)CC3)C(=O)N3CCCC(N3)C(=O)OCC(C)(C)C2)C1	30.1
CC(=O)OC12COC1CC(O)C1(C)C(=O)C(O)C3=C(C)C(OC(=O)C(O)C(NC(=O)OC(C)(C)C)c4ccccc4)CC(O)(C(OC(=O)c4ccccc4)C21)C3(C)C (centres undefined) + CCn1c(-c2cccnc2C(C)OC)c2c3cc(ccc31)N1CCOC(CC(NC(=O)C(C(C)C)N(C)C(=O)C3(F)CCN(C(=O)C#CC(C)(C)N(C)C)CC3)C(=O)N3CCCC(N3)C(=O)OCC(C)(C)C2)C1	53.6
Nc1ccn(C2OC(CO)C(O)C2(F)F)c(=O)n1 (centres undefined) + CCn1c(-c2cc(N3CCN(C)CC3)cnc2C(C)OC)c2c3cc(ccc31)-c1csc(n1)CC(NC(=O)C1CC1C)C(=O)N1CCCC(N1)C(=O)OCC(C)(C)C2	118
C=CC(=O)N1CCN(c2nc(OCC3CCCN3C)nc3c(F)c(-c4nc(N)cc(C)c4C(F)(F)F)c(Cl)cc23)C(C)C1 (centres undefined) + CCn1c(-c2cccnc2C(C)OC)c2c3cc(ccc31)N1CCOC(CC(NC(=O)C(C(C)C)N(C)C(=O)C3(F)CCN(C(=O)C#CC(C)(C)N(C)C)CC3)C(=O)N3CCCC(N3)C(=O)OCC(C)(C)C2)C1	113

Record viability, T/C per entry; entries follow.
1. Cc1nc(N2CCC3(CC2)COC(C)C3N)c(CO)nc1Sc1ccnc(N)c1Cl (centres undefined) + CCn1c(-c2cccnc2C(C)OC)c2c3cc(ccc31)N1CCOC(CC(NC(=O)C(C(C)C)N(C)C(=O)C3(F)CCN(C(=O)C#CC(C)(C)N(C)C)CC3)C(=O)N3CCCC(N3)C(=O)OCC(C)(C)C2)C1
2. CC(C)NCC(C(=O)N1CCN(c2ncnc3c2C(C)CC3O)CC1)c1ccc(Cl)cc1 (centres undefined) + CCn1c(-c2cc(N3CCN(C)CC3)cnc2C(C)OC)c2c3cc(ccc31)-c1csc(n1)CC(NC(=O)C1CC1C)C(=O)N1CCCC(N1)C(=O)OCC(C)(C)C2
3. CC(Nc1ccc2c(c1)OCCn1cc(N3C(=O)OCC3C(F)F)nc1-2)C(N)=O (centres undefined) + CCn1c(-c2cc(N3CCN(C)CC3)cnc2C(C)OC)c2c3cc(ccc31)-c1csc(n1)CC(NC(=O)C1CC1C)C(=O)N1CCCC(N1)C(=O)OCC(C)(C)C2
4. C=CC(=O)Nc1cc(Nc2nccc(-c3cn(C)c4ccccc34)n2)c(OC)cc1N(C)CCN(C)C + CCn1c(-c2cccnc2C(C)OC)c2c3cc(ccc31)N1CCOC(CC(NC(=O)C(C(C)C)N(C)C(=O)C3(F)CCN(C(=O)C#CC(C)(C)N(C)C)CC3)C(=O)N3CCCC(N3)C(=O)OCC(C)(C)C2)C1
5. CCC(CC)c1cc(NC2CCC(N)C2)n2nccc2n1 (centres undefined) + CCn1c(-c2cccnc2C(C)OC)c2c3cc(ccc31)N1CCOC(CC(NC(=O)C(C(C)C)N(C)C(=O)C3(F)CCN(C(=O)C#CC(C)(C)N(C)C)CC3)C(=O)N3CCCC(N3)C(=O)OCC(C)(C)C2)C1
6. CC1(O)CCCC1n1c(=O)c(C(F)F)cc2cnc(NC3CCN(S(C)(=O)=O)CC3)nc21 (centres undefined) + CCn1c(-c2cc(N3CCN(C)CC3)cnc2C(C)OC)c2c3cc(ccc31)-c1csc(n1)CC(NC(=O)C1CC1C)C(=O)N1CCCC(N1)C(=O)OCC(C)(C)C2
7. CCN1CCN(Cc2ccc(Nc3ncc(F)c(-c4cc(F)c5nc(C)n(C(C)C)c5c4)n3)nc2)CC1 + CCn1c(-c2cc(N3CCN(C)CC3)cnc2C(C)OC)c2c3cc(ccc31)-c1csc(n1)CC(NC(=O)C1CC1C)C(=O)N1CCCC(N1)C(=O)OCC(C)(C)C2

Data returned:
[93, 109, 94.3, 97.2, 95, 152, 162]

Record viability, T/C per entry; entries follow.
1. C[C@@H](NC(=O)c1ncnc(N)c1Cl)c1ncc(C(=O)Nc2cc(C(F)(F)F)c(Cl)cn2)s1 + CCn1c(-c2cc(N3CCN(C)CC3)cnc2C(C)OC)c2c3cc(ccc31)-c1csc(n1)CC(NC(=O)C1CC1C)C(=O)N1CCCC(N1)C(=O)OCC(C)(C)C2
2. O=C(c1ccc(F)c(F)c1Nc1ccc(I)cc1F)N1CC(O)([C@@H]2CCCCN2)C1 + CCn1c(-c2cc(N3CCN(C)CC3)cnc2C(C)OC)c2c3cc(ccc31)-c1csc(n1)CC(NC(=O)C1CC1C)C(=O)N1CCCC(N1)C(=O)OCC(C)(C)C2

Data returned:
1. 89.3
2. 18.8

====

# Tested on: 282377-053-R-J1-PDC complex spheroid viability
# protocol: Anticancer human tumor 282377-053-R-J1-PDC cell line growth inhibition [RAS];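 further: spheroids exposed to agents for seven days before readout; luminescence viability as percent of DMSO vehicle control wells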
# assay.context: second compound 0.0316 µM; first compound 1 µM; stronger effect = lower value
reported.property: viability, T/C (%)
Answers are plain numbers, in %.

Consider the worked cases shown below.
CCC(CC)c1cc(NC2CCC(N)C2)n2nccc2n1 (stereo not given) + C#Cc1c(F)ccc2cc(O)cc(-c3ncc4c(N5CC6CCC(C5)N6)nc(OCC56CCCN5CC(F)C6)nc4c3F)c12	111
O=C(c1ccc(F)c(F)c1Nc1ccc(I)cc1F)N1CC(O)([C@@H]2CCCCN2)C1 + C#Cc1c(F)ccc2cc(O)cc(-c3ncc4c(N5CC6CCC(C5)N6)nc(OCC56CCCN5CC(F)C6)nc4c3F)c12	19.7
CC(Nc1ccc2c(c1)OCCn1cc(N3C(=O)OCC3C(F)F)nc1-2)C(N)=O (stereo not given) + C#Cc1c(F)ccc2cc(O)cc(-c3ncc4c(N5CC6CCC(C5)N6)nc(OCC56CCCN5CC(F)C6)nc4c3F)c12	96
C=CC(=O)Nc1cc(Nc2nccc(-c3cn(C)c4ccccc34)n2)c(OC)cc1N(C)CCN(C)C + C=CC(=O)N1CCN(c2nc(OCC3CCCN3C)nc3c(F)c(-c4nc(N)cc(C)c4C(F)(F)F)c(Cl)cc23)C(C)C1	96.3

Shifting focus to the compound that follows.
Data request: Look up viability, T/C: NC1c2ccccc2OC12CCN(c1cnc3c(N4CCCc5ncccc54)n[nH]c3n1)CC2 (stereo not given) + C=CC(=O)N1CCN(c2nc(OCC3CCCN3C)nc3c(F)c(-c4nc(N)cc(C)c4C(F)(F)F)c(Cl)cc23)C(C)C1
Data returned: 92.2
